test system: TK-10 renal; assay: NCI tumour cell line growth inhibition, 48 h
Item-by-item account of TGI
Quick note: give the figure in µM, leave out the unit.

ClCc1ccc(-c2ccc(Cn3cnc4c(Cl)nc(Cl)nc43)cc2)cc1    4.42

As a next step, examine the compound that follows.
(Q) Find the recorded TGI belonging to NS(=O)(=O)c1ccc(NNc2c3ccccc3nc3ccccc23)cc1 and report it.
(A) 26.4

----------
system: SN12C renal; test: NCI tumour cell line growth inhibition, 48 h
experimental readout: TGI

(Q) Form field: reported TGI of N[C@H]1CCN(c2c(F)cc3c(=O)c(C(=O)O)cn4c3c2Oc2cc3c(ccc5ccccc53)cc2-4)C1
(A) > 100 µM

(Q) GET /values?readout=TGI&item= COC(=O)c1ccc(N=NN(C)COc2ccc(C#N)cc2)cc1
(A) > 100 µM

(Q) Returns the measured TGI for the input compound. Input: CC(=O)OCC1OC(n2c(C)c(N=Nc3ccccc3)c(C)c(C#N)c2=S)C(OC(C)=O)C(OC(C)=O)C1OC(C)=O (stereo not given)
(A) > 100 µM

----------
system: SF-268 CNS; assay: NCI tumour cell line growth inhibition, 48 h; in the data active means GI50 below about 0.43 µM; inactive means the rest
Pick one: 1.0 = active, 0.0 = inactive

(Q) Could you kindly confirm the outcome this assay logged for COc1ccc(/C=C2\CN(Cc3cn(CCCNc4ccnc5cc(Cl)ccc45)nn3)C/C(=C\c3ccc(OC)c(OC)c3)C2=O)cc1OC ?
(A) 0.0

(Q) Outcome logged for CCOC(=O)c1c(-c2ccccc2)[n+](=O)c2ccc(Cl)cc2n1[O-] in this assay:
(A) 0.0

(Q) For CN(C)C(=O)/N=c1\ss/c(=N\C(=S)N(C)C)n1-c1ccccc1 , what call appears in the results of this test?
(A) 1.0

(Q) Answer briefly: the call reported for O=C(Nc1nccs1)c1cc2c(cc1Cl)Sc1nccn1S2(=O)=O in this assay.
(A) 0.0

(Q) Assay outcome for Clc1cc(Cl)c(Cl)c(-c2nc(-c3cccnc3)cs2)c1 : what was it?
(A) 0.0

(Q) Fill in: this test's call for C=C1C(=O)O[C@H]2[C@H]1CC/C(Cn1cc(Cn3ccc4ccccc43)nn1)=C\CC[C@@]1(C)O[C@@H]21 is ___
(A) 0.0

----------
Entries with their measured GI50, system SF-539 CNS:

Observe how each entry below is paired with its result.
CC1(C)CC(=O)C2=C(C1)NC(SSC1=C(C#N)C(c3ccc(F)cc3)C3=C(CC(C)(C)CC3=O)N1)=C(C#N)C2c1ccc(F)cc1 (stereo not drawn)    23.4 µg/mL
CN[C@]12CC3(C=CC(=O)C=C3)O[C@@]1(Cc1ccc(OC)cc1)N(C)C(=O)N2    1.9 µM
O=C(O)C1NCCc2c1[nH]c1ccccc21 (stereo not drawn)    > 100 µM
C#CCN=C(N/N=C/c1ccc([N+](=O)[O-])o1)NS(=O)(=O)c1cc(C)c(Cl)cc1SCC(N)=O    17.3 µM
CCCCCCCC/C=C/CCCCCCCC1=NC(C)(C)CN1C(C)C    1.53 µM

(Q) Lab note: need GI50 with SF-539 CNS for entry O=C(Nc1ccccc1)Nc1cccc(-n2cc(-c3ccncc3)c(-c3ccc(O)c(Cl)c3)n2)c1 , please look it up.
(A) 1.96 µM

(Q) Give GI50 (SF-539 CNS) of the following compound: S=c1nc2[nH]ncc2c(N/N=C/c2ccccc2)[nH]1
(A) > 100 µM

(Q) Report GI50 for C/C(CC(=O)NNc1ccc([N+](=O)[O-])cc1)=N\Nc1ccc([N+](=O)[O-])cc1 tested on SF-539 CNS.
(A) 5.97 µM

----------
tested on: PC-3 prostate
Write down the outcome that applies. Available outcomes: active, inactive

Answered cases to consult:
C#CCN=C(N/N=C/c1ccc([N+](=O)[O-])o1)NS(=O)(=O)c1cc(C)c(Cl)cc1SCC(N)=O    inactive
COc1cc(/C=C/C(=O)c2ccc(Nc3ncnc4ccccc34)cc2)cc(OC)c1    inactive
Cc1c2c(nn1C(=O)c1nn(-c3ccc(Cl)cc3)cc1O)-c1ccccc1CC2    active

(Q) Please share the test call associated with NC1=C(Cl)C(=O)c2ccc(S(N)(=O)=O)cc2C1=O .
(A) active

(Q) Field: outcome | Entry: CCN(CC)CCOc1ccc(/C(=C(\C)Cc2ccc(OC)cc2)c2ccc(OC(=O)NCc3ccccc3)cc2)cc1
(A) inactive

(Q) Tell me the assay call for Cn1ncc2c(/N=C/c3cccs3)[nH]c(=S)nc21 please.
(A) inactive

(Q) // outcome(item) with item = CCCc1cc2cc(-n3nc(C)c4c3CC(C)(C)CC4=O)cc(NC3CCC(O)CC3)c2c(=O)[nH]1 (stereo not drawn)
(A) active

(Q) # lookup: test call for COC(=O)C(C)NP(=O)(OCc1ccc(Cn2cnc3c(=O)[nH]c(N)nc32)cc1)Oc1ccccc1 (stereo not drawn)
(A) inactive

----------
system: BT-549 breast; experiment: NCI tumour cell line growth inhibition, 48 h
experimental readout: GI50

// known answers, use as guide
COc1ccc(/C(C)=C(\c2ccc(Cl)cc2)c2ccc(OCCN3CCCC3)cc2)cc1F    3.24 µM
Clc1cc(Cl)c(Cl)c(-c2nc(-c3cccnc3)cs2)c1    20.6 µM
COc1cc(C#N)cc(OC)c1OCCOCCOc1c(OC)cc(C#N)cc1OC    25.3 µM
CCOC(=O)c1c(-c2ccccc2)[n+](=O)c2ccc(Cl)cc2n1[O-]    3.87 µM

(Q) # GI50 lookup, item CN1CCC[C@@H]1CCO[C@](C)(c1ccccc1)c1ccc(Cl)cc1
(A) 9.64 µM

----------
Please consider the recorded GI50 for SK-MEL-28 melanoma in what follows.

(Q) Identify the measured GI50 of O=C(Nc1n[nH]c2nc(-c3ccco3)ccc12)C1CC1 for SK-MEL-28 melanoma.
(A) > 25000 nM

(Q) Form entry - test system: SK-MEL-28 melanoma; read-out: GI50; compound: O=C1/C(=C\C(Cl)=C/c2ccc([N+](=O)[O-])cc2)SC(=S)N1CCc1ccc(O)cc1
(A) 626 nM

(Q) What reported GI50 corresponds to C=C1C(=O)O[C@H]2[C@H]1CC/C(Cn1cc(Cn3ccc4ccccc43)nn1)=C\CC[C@@]1(C)O[C@@H]21 on SK-MEL-28 melanoma?
(A) 1670 nM

----------
test system: NCI-H226 lung; assay: NCI tumour cell line growth inhibition, 48 h
experimental readout: TGI (µM)
State just the number; it will be interpreted in µM.

COc1ccc(/C=C2\CN(Cc3cn(CCCNc4ccnc5cc(Cl)ccc45)nn3)C/C(=C\c3ccc(OC)c(OC)c3)C2=O)cc1OC    4.74

(Q) Any idea what TGI was measured for Cc1cc(N2CCCCCC2)nc(NC2CCCC(Nc3ccnc4cc(Cl)ccc34)C2)n1 (configuration not stated) ?
(A) 3.76

(Q) Returns the measured TGI for the input compound. Input: C#CCN=C(N/N=C/c1ccc([N+](=O)[O-])o1)NS(=O)(=O)c1cc(C)c(Cl)cc1SCC(N)=O
(A) 40.5

----------
tested on: M14 melanoma
Non-standard residues stand in square brackets, D forms with d. Residues, ends and D or L forms follow the SMILES beside them. ξ: configuration not given here. *: point of attachment. Boc = CC(C)(C)OC(=O)*; ξV = CC(C)C(N)C(=O)O; OBn = c1ccc(CO*)cc1
Your response should consist of one outcome taken from active, inactive

(Q) What call does the record list for COc1ccc(N(CC(=O)NCCC[Te]c2ccccc2)C(=O)CCSC2=C(C)C(=O)c3ccccc3C2=O)cc1 ?
(A) inactive

(Q) Tell me the assay call for O=C1OCc2c1cc(F)cc2[N+](=O)[O-] please.
(A) inactive

(Q) Hello, I am checking results. What call was entered for CC(C)C(NC(=O)OC(C)(C)C)C(=O)NCC(=O)OCc1ccccc1 (centres undefined) (Boc-[ξV]-Gly-OBn) ?
(A) inactive

(Q) For this molecule, state the assay outcome: C/C(CC(=O)NNc1ccc([N+](=O)[O-])cc1)=N\Nc1ccc([N+](=O)[O-])cc1
(A) inactive

----------
tested on: U251 CNS
Parameter call: string, one of 1 (active), 0 (inactive)

These solved cases illustrate the format of a correct answer.
O=C1/C(=C\C(Cl)=C/c2ccc([N+](=O)[O-])cc2)SC(=S)N1CCc1ccc(O)cc1    1
COc1cc(C#N)cc(OC)c1OCCOCCOc1c(OC)cc(C#N)cc1OC    0
CCCc1cc2cc(-n3nc(C)c4c3CC(C)(C)CC4=O)cc(NC3CCC(O)CC3)c2c(=O)[nH]1 (stereo not drawn)    0

Now consider a different compound.
(Q) What classification did C/C(CC(=O)NNc1ccc([N+](=O)[O-])cc1)=N\Nc1ccc([N+](=O)[O-])cc1 end up with in this test?
(A) 0

----------
test system: NCI/ADR-RES ovarian; experiment: NCI tumour cell line growth inhibition, 48 h
In this section, each of the compounds is paired with its reported TGI.

The following compounds have reported results that may help.
CCCCCCCC/C=C\CCCCCCC(F)C(=O)O (configuration not stated)    > 12.5 µM
C=C1C[C@@H](O)[C@@H](Br)C(C)(C)[C@]12CCC(C)(Cl)C(Br)C2 (some centres not stated)    98 µM
COc1ccc(-c2cnc3ccnn3c2-c2cc(OC)c(OC)c(OC)c2)cc1    > 100 µM
CC(C)(C)[Si](C)(C)OCCCCC1CC2(S(=O)(=O)C3=CC=C=C=C3)ON1CC2S(=O)(=O)c1ccccc1 (configuration not stated)    > 100 µM
Cc1cc2c(cc1Cl)SC(N/N=C(\N)c1ccc(Cl)cc1)=NS2(=O)=O    > 100 µM

(Q) Which value of TGI has been reported for Cn1c(=O)c2c(no[n+]2[O-])n(C)c1=O in the records?
(A) 46 µM

(Q) Find the recorded TGI belonging to [O-][N+](CCO)(CCO)c1ncnc2nc[nH]c12 and report it.
(A) > 100 µM

(Q) Name the reported TGI value associated with the compound COc1cc(/C=C2\CN(C)C/C(=C\c3cc(OC)c(OC)c(OC)c3)C2=O)cc(OC)c1OC
(A) > 100 µM

(Q) Quick one: TGI for COC(=O)C[C@@H]1C(C)(C)[C@@H]2O[C@@]34C[C@@H]2C(=O)[C@]1(C)[C@H]3CC[C@@]1(C)[C@H](c2ccoc2)OC(=O)C[C@]14O ?
(A) > 100 µM

(Q) // query TGI value for entry O=[n+]1c2c(n([O-])c3ccccc31)-c1cccc3cccc-2c13
(A) > 100 µM

(Q) What value of TGI has been reported for the following compound? N[C@H]1CCN(c2c(F)cc3c(=O)c(C(=O)O)cn4c3c2Oc2cc3c(ccc5ccccc53)cc2-4)C1
(A) > 100 µM

(Q) Which TGI is reported for this compound? CS(=O)(=O)c1nc(-c2cc3c(c(S(C)(=O)=O)n2)CCCC3)cc2c1CCCC2
(A) > 100 µM
